- System: NCI-H460 lung
Please state which outcome applies, choosing from TRUE for active, FALSE for inactive

Molecule	Answer label
CC1(C)CCC[C@]2(C)c3ccccc3C(=O)CC12 (stereo partly specified)	FALSE
CCN(CC)CCCCNc1c2ccc(Cl)cc2nc2ccc(OC)cc12	TRUE
COC(=O)N[C@H]1CCc2c(Cl)c(OC)c(OC)c(OC)c2-c2ccc(SC)c(=O)cc21	TRUE
N#Cc1cc(S(=O)(=O)Nc2nc3ccccc3o2)c(SCc2ccccc2)cc1Cl	FALSE
O=C(/C=C/C12c3ccccc3C(c3ccccc31)C1C(=O)NC(=O)C12)c1ccccc1 (stereo unspecified)	FALSE

Alright, here's another molecule for you.
Enquiry: Short answer needed: outcome of this test for CC[PH+](CC)CC.[Cl][Au] ?
Return: FALSE

====

- Test system: SN12C renal
- Assay info: NCI tumour cell line growth inhibition, 48 h
Readout label: TGI

Compound	Target system	TGI
COc1cc(/C=N/N=C(\N)NO)c([N+](=O)[O-])cc1OC	SN12C renal	> 100 µM

Query CSc1nc(Cl)c2c(n1)Sc1nc3ccccc3n1C2O (centres undefined) yields TGI of > 100 µM

Input CC(C)=CCc1c(O)cc2oc(-c3ccc(O)cc3O)cc(=O)c2c1O . Output TGI: > 69.1 µM

TGI recorded for this compound, COc1cc2nccc(Oc3ccc(NC(=O)c4cn(C(C)C)c(=O)n(-c5ccc(F)cc5)c4=O)cc3F)c2cc1OC , is > 100 µM

====

- Tested on: DLD-1 colon
- Assay info: NCI tumour cell line growth inhibition, 48 h
Readout label: TGI

Below: 8 compounds and their reported TGI.
Compound	TGI
COc1cc(N=Nc2ccc(OC)c(S(=O)(=O)O)c2)c(C)cc1N=Nc1ccc(/C=C/c2ccc(N=[N+]([O-])c3ccc(/C=C/c4ccc(N=Nc5cc(C)c(N=Nc6ccc(OC)c(S(=O)(=O)O)c6)cc5OC)cc4S(=O)(=O)O)c(S(=O)(=O)O)c3)cc2S(=O)(=O)O)c(S(=O)(=O)O)c1	> 100 µM
C=C1C[C@@H]2C[C@@H](C)CC(O)[C@]2(CCCN)C1O (some centres not stated)	> 100 µM
CO[C@@]1(c2ccccc2)O[C@H]2OCCC2[C@H]1c1ccc(Cl)cc1 (some centres not stated)	> 100 µM
Cc1ncc(CI)c(CI)c1O	55.8 µM
C[CH2][Sn]([CH2]C)([O]C(=O)c1ccc(F)cc1)[O]C(=O)c1ccc(F)cc1	> 65.8 µM
CN(C)CCCNC(=O)N/N=C/c1ccccc1	> 100 µM
O=C1NC2C(O)CCCCC2C12CCCCC2 (configuration not stated)	> 100 µM
O=C1Nc2cc(F)ccc2C1=O	> 100 µM

# next compound below
Fill in: DLD-1 colon TGI for CC1c2[nH]c3ccccc3c2CCN1O (configuration not stated) = > 100 µM

====

Quick list: GI50 per entry.
- Tested on: DLD-1 colon
- Assay info: NCI tumour cell line growth inhibition, 48 h

C1=CCCC=CCC1.C[PH+](C)C.C[PH+](C)C.C[PH+](C)C.[Cl-].[Ir] > 100 µM
CC(=O)[CH-]C(=O)c1ccccc1.CC(=O)[CH-]C(=O)c1ccccc1.[O-]c1ccc2c(c1)OCO2.[O-]c1ccc2c(c1)OCO2.[Ti+4] 38.3 µM
CC[PH+](CC)CC.[Cl][Au] 1.28 µM

Now look at this entry.
Result for CC(=O)[O-].N.N.N.N.[Co+3].[O-][Cl+3]([O-])([O-])[O-].[OH3+] , tested on DLD-1 colon, GI50: > 100 µM
